All values here come from paper PMC12340973.

assay.system: NpmA (16S rRNA (m1A1408) methyltransferase) (Escherichia coli)
Construct: recombinant NpmA
Sequence (A8C927 whole entry): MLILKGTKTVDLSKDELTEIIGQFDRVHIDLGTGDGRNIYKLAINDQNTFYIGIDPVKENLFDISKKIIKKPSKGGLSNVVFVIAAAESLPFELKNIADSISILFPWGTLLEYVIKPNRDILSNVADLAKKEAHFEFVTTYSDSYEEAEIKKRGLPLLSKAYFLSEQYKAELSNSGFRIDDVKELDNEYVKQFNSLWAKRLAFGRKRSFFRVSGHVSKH
protocol.details: in vitro […] subunit [3H]-SAM methylation filter-binding assay, dose-response
Type: biochemical
test.readout: pIC50
Remember, pIC50 is on a log scale: it is -log10 of the molar concentration.

INPUT: I have this compound here, Cc1ccc(NC(=O)C(=Cc2cccc([N+](=O)[O-])c2)NC(=O)c2ccc(Cl)cc2Cl)cc1 , and I need its recorded pIC50.
OUTPUT: 4.17

Continuing:
INPUT: I have this compound here, Cc1ccc(NC(=O)C(=Cc2cccc([N+](=O)[O-])c2)NC(=O)c2ccccc2I)cc1 , and I need its recorded pIC50.
OUTPUT: 4.00
